Recorded measurements of FRNT neutralisation, 37997 EC50, one per entry
- measurement-target: CHIKV-37997 (virus) (Chikungunya virus strain 37997) (UniProt Q5XXP3)
- Sequence (Q5XXP3 326-748 limits assumed, chain 1 of 2): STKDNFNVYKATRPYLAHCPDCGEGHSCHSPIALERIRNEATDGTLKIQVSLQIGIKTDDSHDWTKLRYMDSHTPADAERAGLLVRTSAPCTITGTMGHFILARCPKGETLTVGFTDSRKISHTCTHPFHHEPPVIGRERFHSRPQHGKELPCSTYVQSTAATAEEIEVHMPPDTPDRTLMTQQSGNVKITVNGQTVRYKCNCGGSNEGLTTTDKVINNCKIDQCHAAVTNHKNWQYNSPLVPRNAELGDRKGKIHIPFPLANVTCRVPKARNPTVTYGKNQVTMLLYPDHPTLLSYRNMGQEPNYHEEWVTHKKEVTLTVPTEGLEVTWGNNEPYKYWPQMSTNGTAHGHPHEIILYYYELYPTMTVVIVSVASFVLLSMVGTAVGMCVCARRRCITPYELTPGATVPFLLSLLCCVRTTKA
- Sequence (Q5XXP3 810-1248 limits assumed, chain 2 of 2): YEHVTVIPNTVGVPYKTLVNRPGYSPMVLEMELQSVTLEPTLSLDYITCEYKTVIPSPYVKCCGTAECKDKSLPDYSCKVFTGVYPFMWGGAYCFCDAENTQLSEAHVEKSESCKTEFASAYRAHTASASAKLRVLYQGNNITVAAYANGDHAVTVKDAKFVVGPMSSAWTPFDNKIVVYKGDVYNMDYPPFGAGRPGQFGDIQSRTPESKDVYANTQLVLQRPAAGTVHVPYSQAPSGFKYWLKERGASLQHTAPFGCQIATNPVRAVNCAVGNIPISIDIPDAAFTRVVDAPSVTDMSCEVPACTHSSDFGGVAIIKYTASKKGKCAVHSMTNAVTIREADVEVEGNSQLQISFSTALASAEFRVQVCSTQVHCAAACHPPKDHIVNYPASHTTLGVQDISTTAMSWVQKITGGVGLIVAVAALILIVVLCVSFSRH
- assay-procedure: cell-based or functional assay
Express your answer in ng/mL, writing the number without its unit.

binder	output-unit	readout-number
516.H09 (antibody, V domains shown) VH: QLQLQESGPGLVKPSETLSLTCTVSGGSISSSSYYWGWIRQPPGKGLEWIGSIYYSGSTYYNPSLKSRVTISVDTSKNQFSLKLSSVTAADTAVYYCARHSYCSGGSCYLAPLGDWGQGTLVTVSS VL: SYVLTQPPSVSVAPGKTARITCGGNNIGSKSVHWYQQKPGQAPVLVIYYDSDRPSGIPERFSGSNSGNTATLTISRVEAGDEADYYCQVWDSSSDFYVFGTGTKVTVL	ng/mL	526

Data request, read-out FRNT neutralisation, 37997 EC50, for 516.D09 (antibody, V domains shown) VH: QVQLVQSGAEVKKPGSSVKVSCKAFGGTFSSSAITWVRQAPGQGLEWMGRIIPIFGTANYAQKFQGRVTITADKSTTTAYMELSSLRSEDTAVYYCALKADSYCSGSSCYPSFDYWGQGTLVTVSS VL: SYVLTQPPSVSVAPGKTARITCGGNNIGSKSVHWYQQRPGQAPVLVVYDDSDRPSGIPERFSGSNSGNTATLTISRVEAGDEADYYCQVWDSSSDQEVFGGGTKLTVL
350
